# Experimental target: Sphingosine 1-phosphate receptor 1 (Homo sapiens) (UniProt P21453)
# Sequence (P21453 whole entry, looked up): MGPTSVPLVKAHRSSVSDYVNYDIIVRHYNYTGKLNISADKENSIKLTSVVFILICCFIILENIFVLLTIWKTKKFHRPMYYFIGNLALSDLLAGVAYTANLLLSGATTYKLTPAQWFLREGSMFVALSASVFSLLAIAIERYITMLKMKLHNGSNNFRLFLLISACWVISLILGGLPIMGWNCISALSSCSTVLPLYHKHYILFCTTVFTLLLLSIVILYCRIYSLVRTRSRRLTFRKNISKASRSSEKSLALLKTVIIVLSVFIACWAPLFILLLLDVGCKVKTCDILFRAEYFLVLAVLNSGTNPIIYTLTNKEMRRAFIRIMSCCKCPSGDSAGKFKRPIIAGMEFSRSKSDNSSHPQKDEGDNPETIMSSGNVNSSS
# Protocol summary: S1P1 receptor agonists, dose response, cell-based, agonist mode, 60K MLSMR set (AID 468)
# Applied conditions: S1P1 agonist cell-based assay, activation
Activity calls are given as the source filed them. The rule behind the calls is not given here.
Return exactly one item of active, inactive

Some solved cases for reference:
Compound: COc1ccc(/C=N/O)cc1COc1ccc(NC(C)=O)cc1
Experimental target: Sphingosine 1-phosphate receptor 1 (Homo sapiens) (UniProt P21453)
Assigned class: inactive

Compound: C/C(N)=C(/C#N)C(=O)CSc1nc2cc(Cl)ccc2s1
Experimental target: Sphingosine 1-phosphate receptor 1 (Homo sapiens) (UniProt P21453)
Assigned class: inactive

Compound: CC(=O)Oc1ccc(N2C(=O)C3C(C2=O)C2(C)C=CC3(C)O2)cc1 (stereo not drawn)
Experimental target: Sphingosine 1-phosphate receptor 1 (Homo sapiens) (UniProt P21453)
Assigned class: inactive

Compound: C/C(N)=C(/C#N)C(=O)CSc1nnc(SCc2ccc(Cl)cc2)s1
Experimental target: Sphingosine 1-phosphate receptor 1 (Homo sapiens) (UniProt P21453)
Assigned class: active

Compound: CCCCc1ccc(C2C(C#N)=C(N)SC(N)=C2C#N)s1
Experimental target: Sphingosine 1-phosphate receptor 1 (Homo sapiens) (UniProt P21453)
Assigned class: inactive

Compound: COc1ccc(N2C(=O)CC(Sc3ncn[nH]3)C2=O)c(OC)c1 (stereo not drawn)
Experimental target: Sphingosine 1-phosphate receptor 1 (Homo sapiens) (UniProt P21453)
Assigned class: inactive

Compound: COc1ccc(/C(O)=C2/C(=O)C(=O)N(CC3CCCO3)C2c2cccc(OC)c2)cc1 (stereo not drawn)
Experimental target: Sphingosine 1-phosphate receptor 1 (Homo sapiens) (UniProt P21453)
Assigned class: inactive

Compound: CC1=C(C(=O)OCc2ccc3c(c2)OCO3)C(c2ccccc2)NC(=O)N1 (stereo not drawn)
Experimental target: Sphingosine 1-phosphate receptor 1 (Homo sapiens) (UniProt P21453)
Assigned class: active

Compound: O=C1C2C3C=CC(CO)(O3)C2C(=O)N1c1ccccc1-c1ccccc1 (stereo not drawn)
Experimental target: Sphingosine 1-phosphate receptor 1 (Homo sapiens) (UniProt P21453)
Assigned class: active

Compound: CCC(=NC(C)c1ccccc1)c1c(O)n(C)c(=O)n(C)c1=O (stereo not drawn)
Experimental target: Sphingosine 1-phosphate receptor 1 (Homo sapiens) (UniProt P21453)
Assigned class: inactive

Please let me know the test result on file for CCOc1ccc(C(C)=O)cc1N1C(=O)C2C3C=CC(O3)C2C1=O (stereo not drawn) .
inactive

Could you check what this test reported for CCC(=NCCOc1ccc(Cl)cc1)c1c(O)n(C)c(=O)n(C)c1=O ?
active

Given CCOC(=O)c1cccc2c1-c1ccccc1/C2=N/O , state the outcome it received in this test.
inactive

What was the test verdict on CC1(C)CC(=O)C(C=Nc2ccc3[nH]ncc3c2)=C(O)C1 ?
active

Identify the outcome logged in this assay for the compound shown: COC(=O)CC1SC(=O)NC1=Nc1ccccc1 (stereo not drawn)
inactive

---

# Experimental target: Sphingosine 1-phosphate receptor 1 (Homo sapiens)
# Protocol summary: S1P1 receptor agonists, dose response, cell-based, agonist mode, 60K MLSMR set (AID 468)
# Applied conditions: S1P1 agonist cell-based assay, activation
Reported property: EC50

Compound: CCC(=NCc1ccc2c(c1)OCO2)c1c(O)n(C2CCCCC2)c(=O)[nH]c1=O
EC50: 6.81 µM

# compound CC1=C(C(=O)OCc2ccc3c(c2)OCO3)C(c2ccc(F)cc2)NC(=O)N1 (stereo not drawn) ; its EC50 = 0.437 µM
